# Tested on: RVFV
# Assay type: cell-based, Rift Valley Fever virus
Measured EC99 RVFV accompanies every entry in the list below.
propertyMeasured: EC99 RVFV

>  <querySmiles>
Cc1cc(=[N+](C)C)cc2sc3cc(N(C)C)cc(C)c3nc1-2.[Cl-]

>  <propertyMeasured>
EC99 RVFV

>  <result>
<10 µM

$$$$
>  <querySmiles>
CN(C)c1cc(F)c2nc3c(F)cc(=[N+](C)C)cc-3sc2c1

>  <propertyMeasured>
EC99 RVFV

>  <result>
>5 µM

$$$$
>  <querySmiles>
CN(C)c1ccc2nc3ccc(=[N+](C)C)cc-3sc2c1

>  <propertyMeasured>
EC99 RVFV

>  <result>
>5 µM

$$$$
>  <querySmiles>
CN(C)c1cc(Cl)c2nc3c(Cl)cc(=[N+](C)C)cc-3sc2c1

>  <propertyMeasured>
EC99 RVFV

>  <result>
0.05 µM

$$$$
